Measured values drawn from ChEMBL document CHEMBL1201862 for this set.

Biological target: Sentrin-specific protease 6 (Homo sapiens);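 also: Luminescence-based dose-response confirmatory assay of SENP6 inhibition, following up an ultra-high-throughput screen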
Sequence (Q9GZR1 whole entry): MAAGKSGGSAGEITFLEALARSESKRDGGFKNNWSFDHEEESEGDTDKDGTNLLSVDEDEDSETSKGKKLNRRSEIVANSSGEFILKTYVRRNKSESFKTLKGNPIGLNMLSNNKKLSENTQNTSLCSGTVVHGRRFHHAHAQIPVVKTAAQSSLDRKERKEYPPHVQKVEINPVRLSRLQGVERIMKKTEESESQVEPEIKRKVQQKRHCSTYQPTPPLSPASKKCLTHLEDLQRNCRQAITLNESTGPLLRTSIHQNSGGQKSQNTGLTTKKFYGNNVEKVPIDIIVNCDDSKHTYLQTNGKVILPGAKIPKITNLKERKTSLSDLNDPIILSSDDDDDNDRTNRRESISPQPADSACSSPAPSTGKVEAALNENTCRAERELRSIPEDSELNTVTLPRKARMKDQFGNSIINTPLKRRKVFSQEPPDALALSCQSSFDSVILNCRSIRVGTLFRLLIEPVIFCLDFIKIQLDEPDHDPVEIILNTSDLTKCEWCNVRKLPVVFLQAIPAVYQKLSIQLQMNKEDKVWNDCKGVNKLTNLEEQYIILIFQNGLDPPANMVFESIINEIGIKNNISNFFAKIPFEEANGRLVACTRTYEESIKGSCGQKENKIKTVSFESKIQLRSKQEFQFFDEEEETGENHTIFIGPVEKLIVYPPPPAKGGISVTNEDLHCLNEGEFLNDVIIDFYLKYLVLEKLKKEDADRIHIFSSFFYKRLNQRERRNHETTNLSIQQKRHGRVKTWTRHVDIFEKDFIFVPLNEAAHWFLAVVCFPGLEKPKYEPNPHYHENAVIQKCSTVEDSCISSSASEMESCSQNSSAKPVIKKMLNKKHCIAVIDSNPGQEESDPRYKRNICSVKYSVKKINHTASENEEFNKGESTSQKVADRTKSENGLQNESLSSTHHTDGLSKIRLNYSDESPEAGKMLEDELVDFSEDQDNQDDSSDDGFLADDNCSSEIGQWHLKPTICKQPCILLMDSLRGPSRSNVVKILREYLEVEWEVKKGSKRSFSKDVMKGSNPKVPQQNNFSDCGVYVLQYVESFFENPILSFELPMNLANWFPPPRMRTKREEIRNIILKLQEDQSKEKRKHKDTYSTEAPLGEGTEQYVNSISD
Type: functional
Activity calls are given as the source filed them.
Entries annotated with measured IC50
quantity_kind: IC50

{"compound": "CCC(C)n1c(NC(=O)c2ccccc2)c(C#N)c2nc3ccccc3nc21 (centres undefined)", "quantity_kind": "IC50", "meas_value": "0.984 µM (active)"}
{"compound": "CCCCc1ccc(NC(=O)Nc2cccnc2)cc1", "quantity_kind": "IC50", "meas_value": "14.1 µM (active)"}
{"compound": "COc1ccc(NC(=O)c2cc3ccccc3cc2O)cc1", "quantity_kind": "IC50", "meas_value": "72.6 µM (active)"}
{"compound": "O=C(CCl)Oc1ccc2occ(C(=O)c3cccs3)c2c1", "quantity_kind": "IC50", "meas_value": "30.7 µM (active)"}

----------
Notes on AC50 obtained with Cytochrome P450 2D6 (Homo sapiens, UniProt P10635).
Sequence (P10635 whole entry): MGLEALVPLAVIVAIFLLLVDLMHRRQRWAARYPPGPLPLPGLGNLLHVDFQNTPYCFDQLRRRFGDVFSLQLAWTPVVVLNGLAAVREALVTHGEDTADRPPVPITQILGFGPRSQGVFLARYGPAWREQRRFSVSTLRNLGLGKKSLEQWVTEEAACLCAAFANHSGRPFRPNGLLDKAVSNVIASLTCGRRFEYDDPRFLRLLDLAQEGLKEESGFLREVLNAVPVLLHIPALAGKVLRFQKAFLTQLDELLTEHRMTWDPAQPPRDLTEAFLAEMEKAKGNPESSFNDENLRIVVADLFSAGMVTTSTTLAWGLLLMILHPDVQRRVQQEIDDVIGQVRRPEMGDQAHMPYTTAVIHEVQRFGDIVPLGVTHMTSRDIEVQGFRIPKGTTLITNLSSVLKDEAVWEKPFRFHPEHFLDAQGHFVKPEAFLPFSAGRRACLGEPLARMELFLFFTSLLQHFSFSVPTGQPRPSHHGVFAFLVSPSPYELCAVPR
quantity_kind: AC50

{"structure_as_smiles": "COc1cc(/C=C/C(=O)Nc2cc(C(F)(F)F)ccc2Cl)cc(OC)c1OC", "quantity_kind": "AC50", "meas_value": "0.00562 µM (inconclusive)"}
{"structure_as_smiles": "N#C/C(=C\\c1ccc(O)c(O)c1)C(=O)NCCc1ccccc1", "quantity_kind": "AC50", "meas_value": "39.8 µM (inconclusive)"}
{"structure_as_smiles": "CC(/C=N/NC(=O)Cc1cccs1)=C\\c1ccco1", "quantity_kind": "AC50", "meas_value": "14.1 µM (inconclusive)"}
{"structure_as_smiles": "COC(=O)c1cc(Br)c(=O)n(CCN2CCCC2)c1", "quantity_kind": "AC50", "meas_value": "17.8 µM (inconclusive)"}
{"structure_as_smiles": "O=c1c2ccccc2nnn1CSc1nnnn1-c1ccccc1", "quantity_kind": "AC50", "meas_value": "17.8 µM (inconclusive)"}
{"structure_as_smiles": "CCOc1ccc2c(c1)nc(SCC(=O)c1ccc(Br)s1)n2C", "quantity_kind": "AC50", "meas_value": "12.6 µM (inconclusive)"}
{"structure_as_smiles": "O=C(Nc1nc2ccccc2n1Cc1ccccc1)c1ccc(COc2ccccc2[N+](=O)[O-])o1", "quantity_kind": "AC50", "meas_value": "17.8 µM (inconclusive)"}
{"structure_as_smiles": "Cc1cc(C)c2c(N)c3ccccc3nc2n1", "quantity_kind": "AC50", "meas_value": "20 µM (inconclusive)"}
{"structure_as_smiles": "C#CC[N+](CC)(CC)CC#Cc1cccc(Cl)c1.[Br-]", "quantity_kind": "AC50", "meas_value": "2.24 µM (inconclusive)"}
{"structure_as_smiles": "CCOC(=O)c1[nH]c(C(=O)O)c(CCN(CC)CC)c1C", "quantity_kind": "AC50", "meas_value": "3.98 µM (inconclusive)"}

----------
Target: Fatty acid synthase (Homo sapiens)
Sequence (P49327 whole entry): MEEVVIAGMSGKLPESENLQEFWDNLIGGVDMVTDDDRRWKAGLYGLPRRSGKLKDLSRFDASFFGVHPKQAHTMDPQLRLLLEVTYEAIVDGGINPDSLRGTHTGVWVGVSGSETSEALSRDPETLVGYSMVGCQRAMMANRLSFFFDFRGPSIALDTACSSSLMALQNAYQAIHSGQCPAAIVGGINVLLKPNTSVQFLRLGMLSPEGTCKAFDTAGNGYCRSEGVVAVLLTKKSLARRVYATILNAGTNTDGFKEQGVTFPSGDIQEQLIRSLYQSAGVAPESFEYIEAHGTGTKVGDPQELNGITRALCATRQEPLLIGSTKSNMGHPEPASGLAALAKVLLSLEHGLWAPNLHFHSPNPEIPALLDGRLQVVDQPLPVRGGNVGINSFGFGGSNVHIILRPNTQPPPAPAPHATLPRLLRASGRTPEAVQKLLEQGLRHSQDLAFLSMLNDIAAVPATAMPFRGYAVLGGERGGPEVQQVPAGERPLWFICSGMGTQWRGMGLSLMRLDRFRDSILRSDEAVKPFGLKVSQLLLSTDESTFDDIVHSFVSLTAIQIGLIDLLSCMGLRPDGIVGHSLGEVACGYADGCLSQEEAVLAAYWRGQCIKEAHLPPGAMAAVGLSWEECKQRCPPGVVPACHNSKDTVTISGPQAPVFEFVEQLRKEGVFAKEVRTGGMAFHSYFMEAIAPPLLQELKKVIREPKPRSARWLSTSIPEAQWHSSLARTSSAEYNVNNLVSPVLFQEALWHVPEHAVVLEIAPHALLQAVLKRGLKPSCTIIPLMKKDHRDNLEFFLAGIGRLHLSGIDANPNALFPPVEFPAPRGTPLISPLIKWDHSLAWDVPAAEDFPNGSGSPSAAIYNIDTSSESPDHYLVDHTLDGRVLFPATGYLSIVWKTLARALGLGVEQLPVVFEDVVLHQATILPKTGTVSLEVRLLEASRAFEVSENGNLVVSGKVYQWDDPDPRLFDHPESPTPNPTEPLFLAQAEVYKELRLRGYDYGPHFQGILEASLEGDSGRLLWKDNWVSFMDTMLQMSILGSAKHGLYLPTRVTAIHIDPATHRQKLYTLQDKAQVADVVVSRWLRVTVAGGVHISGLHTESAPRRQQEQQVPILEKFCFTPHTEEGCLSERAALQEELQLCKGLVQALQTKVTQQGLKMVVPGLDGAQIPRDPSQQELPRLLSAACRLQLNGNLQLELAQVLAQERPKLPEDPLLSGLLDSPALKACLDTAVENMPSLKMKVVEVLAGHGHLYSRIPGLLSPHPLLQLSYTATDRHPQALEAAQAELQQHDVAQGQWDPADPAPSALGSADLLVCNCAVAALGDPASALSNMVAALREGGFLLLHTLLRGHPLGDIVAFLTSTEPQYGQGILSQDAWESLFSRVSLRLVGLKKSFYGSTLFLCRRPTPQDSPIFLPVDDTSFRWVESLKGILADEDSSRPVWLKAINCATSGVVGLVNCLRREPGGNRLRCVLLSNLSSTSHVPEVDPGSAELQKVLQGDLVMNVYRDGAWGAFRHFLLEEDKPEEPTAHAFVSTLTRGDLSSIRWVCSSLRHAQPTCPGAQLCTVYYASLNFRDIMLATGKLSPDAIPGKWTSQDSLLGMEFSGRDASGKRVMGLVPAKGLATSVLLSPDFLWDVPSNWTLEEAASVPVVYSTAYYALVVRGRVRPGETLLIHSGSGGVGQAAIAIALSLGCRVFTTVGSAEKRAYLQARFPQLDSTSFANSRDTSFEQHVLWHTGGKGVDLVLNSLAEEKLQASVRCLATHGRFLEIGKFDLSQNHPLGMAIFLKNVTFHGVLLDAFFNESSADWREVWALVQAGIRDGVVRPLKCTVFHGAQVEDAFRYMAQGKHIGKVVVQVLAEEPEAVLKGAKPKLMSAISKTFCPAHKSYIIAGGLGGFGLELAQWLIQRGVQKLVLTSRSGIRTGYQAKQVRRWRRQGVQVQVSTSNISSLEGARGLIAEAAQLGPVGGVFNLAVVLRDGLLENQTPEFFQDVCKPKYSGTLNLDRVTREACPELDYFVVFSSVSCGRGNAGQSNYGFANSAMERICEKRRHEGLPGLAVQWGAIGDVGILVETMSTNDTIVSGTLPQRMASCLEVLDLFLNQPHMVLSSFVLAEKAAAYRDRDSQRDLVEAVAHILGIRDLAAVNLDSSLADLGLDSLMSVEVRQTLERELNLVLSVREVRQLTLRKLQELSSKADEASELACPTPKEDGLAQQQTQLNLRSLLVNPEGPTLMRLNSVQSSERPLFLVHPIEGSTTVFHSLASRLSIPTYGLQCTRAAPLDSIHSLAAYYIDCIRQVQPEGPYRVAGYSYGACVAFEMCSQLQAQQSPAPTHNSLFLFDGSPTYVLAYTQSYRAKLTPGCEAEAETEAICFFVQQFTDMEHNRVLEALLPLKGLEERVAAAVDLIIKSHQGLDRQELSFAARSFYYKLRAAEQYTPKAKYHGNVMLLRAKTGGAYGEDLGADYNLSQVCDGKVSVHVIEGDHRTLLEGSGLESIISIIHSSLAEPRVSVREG
Assay: inhibition of human FAS-TE enzyme activity – biochemical, kinetic fluorescence intensity, dose response (AID 624326);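 also: rate of fluorescence rise from hydrolysis of a fluorogenic O-methyl fluorescein ester substrate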
Format: functional
Activity calls are given as the source filed them.
Documented IC50 across a set of molecules
quantity_kind: IC50

{"molecule": "O=C(NCc1ccccc1)/C(=C/c1cccc([N+](=O)[O-])c1)NC(=O)c1ccco1", "quantity_kind": "IC50", "meas_value": "4.38 µM (active)"}
{"molecule": "CCN(CC)C(=O)C1CCCN(c2ccc([N+](=O)[O-])cc2/C=N/NC(=O)c2cccc(O)c2)C1 (centres undefined)", "quantity_kind": "IC50", "meas_value": "1.57 µM (active)"}
{"molecule": "COc1cc(OC)c(C2=NOC(C(=O)N3CCc4ccccc4C3)C2)cc1Cl (centres undefined)", "quantity_kind": "IC50", "meas_value": "2.28 µM (active)"}
{"molecule": "CC(=O)N1CCN(S(=O)(=O)c2cccc(C(=O)OCc3ccc(C(C)(C)C)cc3)c2)CC1", "quantity_kind": "IC50", "meas_value": "0.205 µM (active)"}
{"molecule": "O=C(COc1ccc([N+](=O)[O-])cc1)Nc1ccc2c(c1)CCC2", "quantity_kind": "IC50", "meas_value": "6.78 µM (active)"}
{"molecule": "CCc1ccc(S(=O)(=O)c2nnn3c2nc(NCCNC(C)=O)c2ccccc23)cc1", "quantity_kind": "IC50", "meas_value": "3.5 µM (active)"}
{"molecule": "O=c1c2ccccc2nc(SCc2ccc([N+](=O)[O-])cc2)n1CCCO", "quantity_kind": "IC50", "meas_value": "5.59 µM (active)"}
{"molecule": "CS(=O)(=O)N1CCc2cc(-c3csc(NC(=O)Cc4cccs4)n3)ccc21", "quantity_kind": "IC50", "meas_value": "9.27 µM (active)"}
{"molecule": "C/C(=N\\Nc1ncc(Cl)cc1Cl)c1ccc(OC(F)F)cc1", "quantity_kind": "IC50", "meas_value": "14.2 µM (active)"}

----------
Each entry below lists one item and its recorded EC50 value.
Target: Peroxisome proliferator-activated receptor gamma/Nuclear receptor coactivator 2 (Homo sapiens)
Assay: TR-FRET dose response biochemical High Throughput Screening assay for agonists of the steroid receptor coactivator 2 (SRC-2) recruitment by the peroxisome proliferator-activated receptor gamma (PPAR gamma): non-selective agonists. [Related pubchem assays: 1297, 1032 ]
Type: functional
quantity_kind: EC50

{"structure_as_smiles": "C#CCn1/c(=N/C(=O)c2ccc(Br)s2)sc2cccc(OC)c21", "quantity_kind": "EC50", "meas_value": "10.6 µM (not active)"}
{"structure_as_smiles": "CCOc1ccc2c(c1)nc(SCC(=O)c1ccc(Br)s1)n2C", "quantity_kind": "EC50", "meas_value": "22.9 µM (not active)"}
{"structure_as_smiles": "COc1ccc(C(=O)Nc2nc3ccc4nc(C)sc4c3s2)cc1", "quantity_kind": "EC50", "meas_value": "37.9 µM (not active)"}
{"structure_as_smiles": "O=C(CSc1ncnc2c1oc1ccccc12)N1CCCc2ccccc21", "quantity_kind": "EC50", "meas_value": "85.1 µM (not active)"}

----------
Molecular target: Ubiquitin-conjugating enzyme E2 N (Homo sapiens, UniProt P61088);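 also: Dose-response confirmation in a TR-FRET assay detecting UBC13-driven polyubiquitin chain formation, inhibition measured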
Sequence (P61088 whole entry): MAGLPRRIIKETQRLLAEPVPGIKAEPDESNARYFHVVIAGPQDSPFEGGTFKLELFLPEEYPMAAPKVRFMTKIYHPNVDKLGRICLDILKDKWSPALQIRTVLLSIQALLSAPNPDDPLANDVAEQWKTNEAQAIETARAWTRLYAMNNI
Type: functional
Activity calls are given as the source filed them.
Outcomes: active, inactive

{"molecule": "COc1ccc(/C=C2/Sc3ccc(C(=O)NCCN4CCCCCC4)cc3NC2=O)cc1", "target_system": "Ubiquitin-conjugating enzyme E2 N (Homo sapiens, UniProt P61088)", "qualitative_label": "inactive"}
{"molecule": "CCOc1ccc(Nc2nc(NCC3CCCO3)c3ccccc3n2)cc1 (stereo not given)", "target_system": "Ubiquitin-conjugating enzyme E2 N (Homo sapiens, UniProt P61088)", "qualitative_label": "inactive"}
{"molecule": "Cc1cccc(C(=O)Oc2ccc(/C=N/NC(=O)Cc3ccc([N+](=O)[O-])cc3)cc2)c1", "target_system": "Ubiquitin-conjugating enzyme E2 N (Homo sapiens, UniProt P61088)", "qualitative_label": "inactive"}
{"molecule": "CN(Cc1ccccc1)C(=O)CCSc1nc(-c2ccc3c(c2)OCO3)cc(C(F)(F)F)n1", "target_system": "Ubiquitin-conjugating enzyme E2 N (Homo sapiens, UniProt P61088)", "qualitative_label": "inactive"}
{"molecule": "NC(=O)c1nsc(C(=O)N(c2ccccc2F)C(C(=O)NCc2ccc(F)cc2)c2ccc(O)cc2)c1N (stereo not given)", "target_system": "Ubiquitin-conjugating enzyme E2 N (Homo sapiens, UniProt P61088)", "qualitative_label": "inactive"}
{"molecule": "CSCCC(NC(=O)COc1ccccc1)C(=O)N1CCC(C(N)=O)CC1 (stereo not given)", "target_system": "Ubiquitin-conjugating enzyme E2 N (Homo sapiens, UniProt P61088)", "qualitative_label": "active"}
{"molecule": "C#CCOCCOCCOCCNc1nc(N2CCN(C(=O)C([C@@H](C)O)n3cc([C@@H](N)CCCCN)nn3)CC2)nc(N2CCN(C(=O)[C@H](CO)n3cc([C@@H](N)C(C)C)nn3)CC2)n1 (stereo not given in full)", "target_system": "Ubiquitin-conjugating enzyme E2 N (Homo sapiens, UniProt P61088)", "qualitative_label": "active"}
{"molecule": "CN1CCN(CCCNC(=O)c2cn(C3CCCCC3)c(=O)c3c2c2ccccc2n3C)CC1", "target_system": "Ubiquitin-conjugating enzyme E2 N (Homo sapiens, UniProt P61088)", "qualitative_label": "inactive"}
{"molecule": "CN1CCN(CCCNC(=O)c2ccc(/C=C3\\Oc4ccccc4N(Cc4ccccc4F)C3=O)cc2)CC1", "target_system": "Ubiquitin-conjugating enzyme E2 N (Homo sapiens, UniProt P61088)", "qualitative_label": "inactive"}
{"molecule": "COc1ccccc1-c1sc2cc3c(cc2c1C#Cc1cncn1C)OCO3", "target_system": "Ubiquitin-conjugating enzyme E2 N (Homo sapiens, UniProt P61088)", "qualitative_label": "inactive"}
